target: recombinant homotrimeric HA, A/California/4/09 H1N1 (Influenza A virus A/California/4/09 (H1N1)); assay: trimeric HA microarray, transfection set 5; details: remark: other sources report otherwise
Give Trimeric HA Binding RLU for every item shown.
Answer format reminder: number followed by unit.

Please look at this binder and report its Trimeric HA Binding RLU: TCN-555 (5246_L16) (antibody, V domains shown) VH: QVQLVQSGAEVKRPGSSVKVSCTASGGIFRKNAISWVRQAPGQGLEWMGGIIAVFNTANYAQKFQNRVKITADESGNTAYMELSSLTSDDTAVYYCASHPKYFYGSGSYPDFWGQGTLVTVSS VL: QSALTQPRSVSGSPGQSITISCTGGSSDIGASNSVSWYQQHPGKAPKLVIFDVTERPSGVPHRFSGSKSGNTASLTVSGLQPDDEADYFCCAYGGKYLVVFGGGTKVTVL
20200 RLU

Please look at this binder and report its Trimeric HA Binding RLU: TCN-543 (5081_G23) (antibody, V domains shown) VH: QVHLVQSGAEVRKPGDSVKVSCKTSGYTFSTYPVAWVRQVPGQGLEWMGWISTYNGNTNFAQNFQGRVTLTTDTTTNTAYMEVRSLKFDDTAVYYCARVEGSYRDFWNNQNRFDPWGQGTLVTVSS VL: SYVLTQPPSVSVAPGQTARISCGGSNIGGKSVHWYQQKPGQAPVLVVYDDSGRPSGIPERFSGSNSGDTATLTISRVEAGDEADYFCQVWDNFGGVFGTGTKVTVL
2340 RLU

Please look at this binder and report its Trimeric HA Binding RLU: TCN-544 (5082_A19) (antibody, V domains shown) VH: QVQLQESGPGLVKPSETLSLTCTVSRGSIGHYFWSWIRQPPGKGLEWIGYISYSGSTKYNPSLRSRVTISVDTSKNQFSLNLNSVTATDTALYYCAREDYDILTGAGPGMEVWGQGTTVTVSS VL: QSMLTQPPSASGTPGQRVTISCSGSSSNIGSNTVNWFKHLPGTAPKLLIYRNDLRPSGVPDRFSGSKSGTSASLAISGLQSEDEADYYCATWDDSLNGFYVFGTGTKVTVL
706 RLU

Data origin, for the record: patent US20120207760A1
